experiment: Volume of distribution at steady state in rat at 1 mg/kg, iv by LC-MS/MS analysis; type: ADME, organism-based; settings: in vivo, read-out: Vdss
So I've got a bunch of molecules here, and I need their Vd values.
One number for each entry, in L/kg.

Compound structure: O=C(COc1ccc(Cl)cc1)NC12CC(c3nnc([C@H]4C[C@@H](OC(F)(F)F)C4)o3)(C1)C2
Unit string: L/kg
Vd: 0.31

Note: attention shifts to another entry.
Name the recorded Vd of the molecule listed here: O=C(COc1ccc(C(F)(F)F)cc1)NC12CC(c3nnc([C@H]4C[C@@H](OC(F)(F)F)C4)o3)(C1)C2
0.26

====

assay: Half life in cynomolgus monkey at 0.5 mg/kg, iv; type: ADME, organism-based, Macaca fascicularis; conditions: in vivo
Quantity measured: half-life

Name the recorded half-life of the item O=C(COc1ccc(Cl)cc1)NC12CC(c3nnc([C@H]4C[C@@H](OC(F)(F)F)C4)o3)(C1)C2 in your answer.
7.6 h

====

test: Lipophilicity, log D of the compound at pH 7.4; format: physicochemical; conditions: buffer
Quantity measured: logD

Compound structure: O=C(COc1ccc(Cl)cc1)NC12CC(NC(=O)COc3ccc(Cl)cc3)(C1)C2
Assay value: 2.9
//
Compound structure: O=C(COc1ccc(Cl)cc1)NC12CCC(NC(=O)COc3ccc(Cl)cc3)(CC1)CC2
Assay value: 4.5
//
Compound structure: O=C(COCC1CCC1)NC12CC(NC(=O)COc3ccc(Cl)cc3)(C1)C2
Assay value: 3.6
//
Compound structure: O=C(COc1ccc(Cl)cc1)NC1CCN(C(=O)COc2ccc(Cl)cc2)CC1
Assay value: 3.3

Next item in the queue.
Input O=C(COc1ccc(Cl)cc1)NC12CCC(NC(=O)COc3ccc(Cl)cc3)(CC1)C2 , output reported logD.
4.6

====

Would you kindly list solubility kinetic for each of these compounds?
assay: Kinetic solubility of compound; assay type: physicochemical; settings: read-out: Kinetic_solubility
Numbers only, in µM.

Known solubility kinetic results, listed for orientation:
Compound: O=C(COCC1CC1)NC12CC(NC(=O)COc3ccc(Cl)cc3)(C1)C2
Unit string: µM
solubility kinetic: 184
--
Compound: O=C(COc1ccc(Cl)cc1)NC12CC(NC(=O)COc3ccc(Cl)cc3)(C1)C2
Unit string: µM
solubility kinetic: 2
--
Compound: O=C(COc1ccc(Cl)cc1)NC12CC(NC(=O)COC3CC3)(C1)C2
Unit string: µM
solubility kinetic: 181
--
Compound: O=C(COc1ccc(Cl)cc1)NC12CC(NC(=O)COC3CCCC3)(C1)C2
Unit string: µM
solubility kinetic: 34
--
Compound: O=C(COCC1CCC1)NC12CC(NC(=O)COc3ccc(Cl)cc3)(C1)C2
Unit string: µM
solubility kinetic: 19
--
Compound: O=C(COc1ccc(Cl)cc1)NC12CC(NC(=O)COC3CCC3)(C1)C2
Unit string: µM
solubility kinetic: 141

// each listed compound needs a value for solubility kinetic
1. O=C(COc1ccc(Cl)cc1)NC1CCN(C(=O)COc2ccc(Cl)cc2)CC1
2. O=C(COc1ccc(Cl)cc1)NC12CC(NC(=O)COC3CCOC3)(C1)C2 (stereo unspecified)

5
194

====

assay: Oral bioavailability in rat at 3 mg/kg; assay type: ADME, organism-based; conditions: in vivo
Quantity measured: bioavailability

Tell us which bioavailability value is on record for O=C(COc1ccc(Cl)cc1)NC12CC(c3nnc([C@H]4C[C@@H](OC(F)(F)F)C4)o3)(C1)C2 [EVETIFATOR]
56%
